Target: JAK2 (Homo sapiens, UniProt O60674)
Construct: endogenous in cells; mixed lysate 1:2
Sequence (O60674 whole entry): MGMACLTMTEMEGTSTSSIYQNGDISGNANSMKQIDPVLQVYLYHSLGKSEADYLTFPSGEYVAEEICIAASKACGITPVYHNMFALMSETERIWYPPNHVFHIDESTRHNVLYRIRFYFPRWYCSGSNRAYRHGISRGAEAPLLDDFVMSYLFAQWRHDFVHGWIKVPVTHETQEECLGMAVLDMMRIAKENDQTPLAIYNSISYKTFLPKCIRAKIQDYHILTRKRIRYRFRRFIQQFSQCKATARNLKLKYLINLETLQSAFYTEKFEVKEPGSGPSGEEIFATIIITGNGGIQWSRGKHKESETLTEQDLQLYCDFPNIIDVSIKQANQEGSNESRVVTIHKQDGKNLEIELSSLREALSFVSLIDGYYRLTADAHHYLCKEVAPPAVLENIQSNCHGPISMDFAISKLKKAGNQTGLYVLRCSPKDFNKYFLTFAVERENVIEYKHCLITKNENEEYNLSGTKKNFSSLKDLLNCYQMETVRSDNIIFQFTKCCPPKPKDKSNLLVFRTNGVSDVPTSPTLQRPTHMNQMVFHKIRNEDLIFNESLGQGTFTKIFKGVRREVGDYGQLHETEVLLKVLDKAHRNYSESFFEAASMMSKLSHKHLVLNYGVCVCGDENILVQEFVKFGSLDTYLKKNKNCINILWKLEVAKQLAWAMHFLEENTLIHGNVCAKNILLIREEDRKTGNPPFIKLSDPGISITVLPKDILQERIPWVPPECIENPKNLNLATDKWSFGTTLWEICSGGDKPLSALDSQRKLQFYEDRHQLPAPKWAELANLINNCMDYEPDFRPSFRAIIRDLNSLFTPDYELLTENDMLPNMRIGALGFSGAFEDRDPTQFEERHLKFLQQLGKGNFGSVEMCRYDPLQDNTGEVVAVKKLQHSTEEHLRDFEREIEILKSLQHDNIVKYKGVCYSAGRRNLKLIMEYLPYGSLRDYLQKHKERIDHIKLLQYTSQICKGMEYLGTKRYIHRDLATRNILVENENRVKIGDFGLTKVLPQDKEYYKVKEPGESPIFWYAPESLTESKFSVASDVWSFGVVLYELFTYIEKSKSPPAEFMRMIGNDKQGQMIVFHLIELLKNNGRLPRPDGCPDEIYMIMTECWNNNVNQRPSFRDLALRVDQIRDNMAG
Assay: Kinobeads assay with immunodetection, JAK2
Settings: mixed Molt4/Ramos lysate, read-out: Inhibition values (IC50) JAK2
pIC50: −log10 of the molar value. Counter-ions that a name gives are not always drawn.
measured-metric: pIC50

compound=Cc1cnc(Nc2cnn(C)c2)nc1NC[C@@H]1CCCN1CCC#N reading="5.00 to 6.00"
compound=CS(=O)(=O)N1CCCC[C@H]1CNc1nc(Nc2cnn(CCO)c2)ncc1Cl reading="5.00 to 6.00"
compound=Cn1cc(Nc2ncc(Cl)c(NC[C@H]3CCCN3S(C)(=O)=O)n2)cn1 reading="6.00 to 7.00"
compound=CC(C)NC(=O)Cn1cc(Nc2nccc(NC[C@H]3CCCN3CCS(C)(=O)=O)n2)cn1 reading="< 5.00"
compound="OCCn1cc(Nc2ncc(Cl)c(NCC3CCNC3)n2)cn1 (stereo in doubt)" reading="> 7.00"
compound=Cn1cc(Nc2ncc(Cl)c(NC[C@@H]3CCCN3C(=O)CCC#N)n2)cn1 reading="6.00 to 7.00"
compound=Cc1cnc(Nc2cnn(C)c2)nc1NC[C@@H]1C[C@H](F)CN1C(=O)CCC#N reading="5.00 to 6.00"
compound=Cn1cc(Nc2ncc(Cl)c(NC[C@H]3CCCN3CCCC#N)n2)cn1 reading="5.00 to 6.00"
compound=C=CC(=O)N1CCCC[C@H]1CNc1nc(Nc2cnn(C)c2)ncc1Cl reading="< 5.00"
compound=Cn1cc(Nc2ncc(F)c(NC[C@H]3CCCN3C(=O)CC#N)n2)cn1 reading="5.00 to 6.00"
compound=Cc1cnc(Nc2cnn(C)c2)nc1NC[C@H]1CCCN1CCS(C)(=O)=O reading="6.00 to 7.00"
compound="Cc1cnc(Nc2cnn(C)c2)nc1NC[C@H]1CCCN1 [Example 72, Hydrochloride]" reading="< 5.00"
compound=Cc1cnc(Nc2cnn(CC(F)F)c2)nc1NC[C@@H]1C[C@H](F)CN1CCS(C)(=O)=O reading="5.00 to 6.00"
compound=CC(=O)N1CCCC[C@H]1CNc1nc(Nc2cnn(CCO)c2)ncc1Cl reading="< 5.00"
compound=Cn1cc(Nc2ncc(Cl)c(NCC3CCCCC3)n2)cn1 reading="5.00 to 6.00"
compound=C=CC(=O)N1CC[C@@H](CNc2nc(Nc3cnn(C)c3)ncc2Cl)C1 reading="< 5.00"
compound=CN(C)C(=O)Cn1cc(Nc2ncc(Cl)c(NC[C@@H]3CCCN3S(C)(=O)=O)n2)cn1 reading="6.00 to 7.00"
compound=Cc1cnc(Nc2cnn(CC(F)F)c2)nc1NC[C@H]1CCN(C(=O)CCC#N)C1 reading="6.00 to 7.00"
compound=CS(=O)(=O)N1CCCC[C@@H]1CNc1nc(Nc2cnn(CCO)c2)ncc1Cl reading="6.00 to 7.00"
compound=Cn1cc(Nc2ncc(Cl)c(NCC3CN(S(C)(=O)=O)C3)n2)cn1 reading="< 5.00"
compound=Cn1cc(Nc2ncc(Cl)c(NC[C@@H]3CCCN(C(=O)CC#N)C3)n2)cn1 reading="6.00 to 7.00"
compound=CC(=O)N1CCCC[C@@H]1CNc1nc(Nc2cnn(CCO)c2)ncc1Cl reading="6.00 to 7.00"
compound=Cn1cc(Nc2ncc(Cl)c(NC[C@@H]3CCCN3CCC#N)n2)cn1 reading="> 7.00"
compound=Cn1cc(Nc2ncc(Cl)c(NC[C@H]3CCCN3CC(=O)NCC#N)n2)cn1 reading="5.00 to 6.00"
compound=CC(=O)N1CCC[C@H]1CNc1nc(Nc2cnn(CCO)c2)ncc1Cl reading="5.00 to 6.00"
compound=Cn1cc(Nc2ncc(Cl)c(NC[C@H]3CCCN3C(=O)CC#N)n2)cn1 reading="6.00 to 7.00"
compound=Cn1cc(Nc2ncc(Cl)c(NC[C@H]3CCCN3C(=O)CO)n2)cn1 reading="6.00 to 7.00"
compound=Cn1cc(Nc2ncc(Cl)c(NCC3CCOCC3)n2)cn1 reading="5.00 to 6.00"
compound=CC(C)S(=O)(=O)CCN1CCC[C@@H]1CNc1nc(Nc2cnn(C)c2)ncc1Cl reading="5.00 to 6.00"
compound=Cc1cnc(Nc2cnn(C)c2)nc1NC[C@@H]1C[C@H](F)CN1CCS(C)(=O)=O reading="6.00 to 7.00"
compound="Cn1cc(Nc2ncc(Cl)c(NC[C@H]3CCCN3C3CCS(=O)(=O)C3)n2)cn1 (some centres unmarked)" reading="6.00 to 7.00"
compound=Cn1cc(Nc2ncc(Cl)c(NC[C@H]3CCCN(C(=O)CC#N)C3)n2)cn1 reading="6.00 to 7.00"
compound=CN(C)CC(=O)N1CCC[C@@H]1CNc1nc(Nc2cnn(C)c2)ncc1Cl reading="5.00 to 6.00"
compound=CC(=O)N1CC(CNc2nc(Nc3cnn(C)c3)ncc2Cl)C1 reading="< 5.00"
compound=C=CC(=O)N1CCCC[C@@H]1CNc1nc(Nc2cnn(C)c2)ncc1Cl reading="6.00 to 7.00"

---

Listed next: entries and their corresponding IC50.
Molecular target: TYK2 (Homo sapiens, UniProt P29597)
Construct: endogenous in cells; mixed lysate 1:2
Sequence (P29597 whole entry): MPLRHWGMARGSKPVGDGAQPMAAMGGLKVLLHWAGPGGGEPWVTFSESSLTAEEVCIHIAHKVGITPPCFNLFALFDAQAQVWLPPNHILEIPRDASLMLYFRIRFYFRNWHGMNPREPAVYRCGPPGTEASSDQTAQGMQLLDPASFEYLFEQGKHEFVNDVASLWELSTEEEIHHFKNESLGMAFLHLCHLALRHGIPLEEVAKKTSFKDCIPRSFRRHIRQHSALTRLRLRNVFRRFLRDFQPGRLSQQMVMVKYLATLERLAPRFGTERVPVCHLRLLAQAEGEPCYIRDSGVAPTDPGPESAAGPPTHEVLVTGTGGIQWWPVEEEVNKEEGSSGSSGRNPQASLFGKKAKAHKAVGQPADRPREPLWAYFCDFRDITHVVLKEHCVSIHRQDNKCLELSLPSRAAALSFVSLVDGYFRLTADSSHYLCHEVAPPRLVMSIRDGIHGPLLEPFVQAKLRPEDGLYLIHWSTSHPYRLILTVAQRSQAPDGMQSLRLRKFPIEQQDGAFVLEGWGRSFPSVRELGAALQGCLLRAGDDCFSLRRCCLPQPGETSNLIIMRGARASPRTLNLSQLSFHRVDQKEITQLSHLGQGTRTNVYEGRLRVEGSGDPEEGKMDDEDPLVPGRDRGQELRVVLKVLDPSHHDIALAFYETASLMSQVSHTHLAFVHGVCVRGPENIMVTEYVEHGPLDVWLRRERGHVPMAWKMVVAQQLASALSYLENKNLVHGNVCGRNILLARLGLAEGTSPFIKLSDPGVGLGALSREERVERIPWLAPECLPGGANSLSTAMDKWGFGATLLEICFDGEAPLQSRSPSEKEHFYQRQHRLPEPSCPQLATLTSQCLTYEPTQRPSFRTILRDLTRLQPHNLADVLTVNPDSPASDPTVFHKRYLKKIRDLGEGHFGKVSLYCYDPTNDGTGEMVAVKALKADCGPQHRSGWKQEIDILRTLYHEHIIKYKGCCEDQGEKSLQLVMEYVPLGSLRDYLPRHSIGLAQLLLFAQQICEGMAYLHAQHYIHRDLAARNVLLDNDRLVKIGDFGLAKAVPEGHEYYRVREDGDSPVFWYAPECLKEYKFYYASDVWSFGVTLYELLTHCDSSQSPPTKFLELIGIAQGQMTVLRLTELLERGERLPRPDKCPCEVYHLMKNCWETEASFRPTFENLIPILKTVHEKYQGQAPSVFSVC
Test: Kinobeads assay with immunodetection, TYK2
Details: Kinobeads assay, mixed Molt4/Ramos lysate; read-out: Inhibition values (IC50) Tyk2
measured-metric: IC50

compound="CC(C)S(=O)(=O)CCN1CCC[C@@H]1CNc1nc(Nc2cnn(C)c2)ncc1Cl [Example 139]" reading="100 to 1000 nM"
compound="C=CC(=O)N1CCCC[C@H]1CNc1nc(Nc2cnn(C)c2)ncc1Cl [Example 34]" reading="1000 to 10000 nM"
compound="Cn1cc(Nc2ncc(Cl)c(NC[C@@H]3C[C@H](F)CN3CCCC#N)n2)cn1 [Example 133]" reading="< 100 nM"
compound="C=CC(=O)N1CCCC[C@@H]1CNc1nc(Nc2cnn(CCO)c2)ncc1Cl [Example 42]" reading="< 100 nM"
compound="C=CS(=O)(=O)N1CC[C@H](CNc2nc(Nc3cnn(C)c3)ncc2Cl)C1 [Example 25]" reading="100 to 1000 nM"
compound="Cn1cc(Nc2ncc(Cl)c(NCC3CCCN(C(=O)CC#N)C3)n2)cn1 (stereo not drawn) [Example 134]" reading="< 100 nM"
compound="Cc1cnc(Nc2cnn(C)c2)nc1NC[C@H]1CCCN1C(=O)CC#N [Example 109]" reading="< 100 nM"
compound="C=CS(=O)(=O)N1CCC[C@@H]1CNc1nc(Nc2cnn(C)c2)ncc1Cl [Example 7]" reading="100 to 1000 nM"
compound="C=CC(=O)N1CCCC[C@H]1CNc1nc(Nc2cnn(CCO)c2)ncc1Cl [Example 35]" reading="1000 to 10000 nM"
compound="Cn1cc(Nc2ncc(Cl)c(NC[C@@H]3CCCN3CCS(C)(=O)=O)n2)cn1 [Example 82]" reading="< 100 nM"
compound="Cc1cnc(Nc2cnn(C)c2)nc1NC[C@@H]1CCCN1CCS(C)(=O)=O [Example 105]" reading="< 100 nM"
compound="CC(=O)N1CCC[C@@H]1CNc1nc(Nc2cnn(C)c2)ncc1Cl [Example 1]" reading="< 100 nM"
compound="Cn1cc(Nc2ncc(Cl)c(NC[C@@H]3CCCN3C(=O)CCC#N)n2)cn1 [Example 92]" reading="< 100 nM"
compound="C=CS(=O)(=O)N1CCCC[C@@H]1CNc1nc(Nc2cnn(C)c2)ncc1Cl [Example 45]" reading="100 to 1000 nM"
compound="CC(=O)N1CCC[C@@H]1CNc1nc(Nc2cnn(CCO)c2)ncc1Cl [Example 2]" reading="< 100 nM"
compound="Cn1cc(Nc2ncc(Cl)c(NC[C@H]3CCCN3CC#N)n2)cn1 [Example 131]" reading="< 100 nM"
compound="Cn1cc(Nc2ncc(Cl)c(NCC3CCCCC3)n2)cn1 [Example 47]" reading="100 to 1000 nM"
compound="Cc1cnc(Nc2cnn(C)c2)nc1NC[C@@H]1CCCN1CCC#N [Example 106]" reading="< 100 nM"

---

Biological target: TYK2 (Homo sapiens)
Construct: endogenous in cells; host or cells: Molt4 (ATCC CRL-1582) and Ramos (ATCC CRL-1596) cells; mixed lysate 1:2
Assay: Kinobeads assay with immunodetection, TYK2
Type: binding
Conditions: Tyk2 over JAK2
measured-metric: Selectivity ratio over JAK2, Tyk2

compound="C=CS(=O)(=O)N1CCC[C@H]1CNc1nc(Nc2cnn(C)c2)ncc1Cl [Example 14]" test_system="TYK2 (Homo sapiens)" reading="Tyk2 = 14"
compound="CCS(=O)(=O)N1CCC[C@@H]1CNc1nc(Nc2cnn(C)c2)ncc1Cl [Example 51]" test_system="TYK2 (Homo sapiens)" reading="Tyk2 = 14"

---

# IC50 listing for each entry below
Target: JAK1 (Homo sapiens, UniProt P23458)
Construct: endogenous in cells; host or cells: Molt4 (ATCC CRL-1582) and Ramos (ATCC CRL-1596) cells; mixed lysate 1:2
Sequence (P23458 whole entry): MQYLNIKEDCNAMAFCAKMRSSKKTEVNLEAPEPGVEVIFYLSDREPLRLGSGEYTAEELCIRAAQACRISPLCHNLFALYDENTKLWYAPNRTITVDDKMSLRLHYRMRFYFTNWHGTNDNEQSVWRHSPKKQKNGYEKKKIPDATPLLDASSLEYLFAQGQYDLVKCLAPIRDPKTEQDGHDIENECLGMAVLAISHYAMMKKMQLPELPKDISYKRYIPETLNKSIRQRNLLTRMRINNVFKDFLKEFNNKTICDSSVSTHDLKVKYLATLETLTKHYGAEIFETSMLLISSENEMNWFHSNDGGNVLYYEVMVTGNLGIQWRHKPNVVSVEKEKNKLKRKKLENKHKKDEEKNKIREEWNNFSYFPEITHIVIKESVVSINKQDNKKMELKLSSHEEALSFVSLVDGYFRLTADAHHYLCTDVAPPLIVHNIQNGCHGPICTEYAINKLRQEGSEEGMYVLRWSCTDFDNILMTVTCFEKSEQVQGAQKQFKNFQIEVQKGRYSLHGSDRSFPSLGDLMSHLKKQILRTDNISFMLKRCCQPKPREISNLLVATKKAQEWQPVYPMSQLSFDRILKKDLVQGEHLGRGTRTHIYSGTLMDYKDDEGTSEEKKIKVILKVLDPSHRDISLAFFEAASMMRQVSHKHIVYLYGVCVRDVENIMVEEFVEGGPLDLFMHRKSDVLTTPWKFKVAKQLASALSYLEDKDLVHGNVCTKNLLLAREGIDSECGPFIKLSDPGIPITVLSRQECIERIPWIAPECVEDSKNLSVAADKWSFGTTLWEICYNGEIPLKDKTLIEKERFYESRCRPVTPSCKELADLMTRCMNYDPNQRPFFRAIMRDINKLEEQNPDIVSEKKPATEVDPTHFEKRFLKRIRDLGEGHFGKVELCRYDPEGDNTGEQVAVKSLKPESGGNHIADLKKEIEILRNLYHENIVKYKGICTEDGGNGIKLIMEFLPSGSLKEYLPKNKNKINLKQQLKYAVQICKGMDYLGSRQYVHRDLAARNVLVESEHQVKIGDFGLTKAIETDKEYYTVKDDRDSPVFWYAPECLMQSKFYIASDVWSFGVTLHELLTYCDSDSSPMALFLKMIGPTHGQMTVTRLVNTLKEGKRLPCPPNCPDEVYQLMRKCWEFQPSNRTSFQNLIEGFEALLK
Assay: Kinobeads assay with immunodetection, JAK1
Assay type: binding
Conditions: Kinobeads assay, mixed Molt4/Ramos lysate; read-out: Inhibition values (IC50) JAK1
measured-metric: IC50

compound=CC(=O)N1CC[C@H](CNc2nc(Nc3cnn(C)c3)ncc2Cl)C1 reading="0.1 to 1 µM"
compound=Cn1cc(Nc2ncc(Cl)c(NC[C@H]3CCCN3CC(=O)NCC#N)n2)cn1 reading="< 0.1 µM"
compound=C=CS(=O)(=O)N1CCC[C@H]1CNc1nc(Nc2cnn(C)c2)ncc1Cl reading="0.1 to 1 µM"
compound=Cn1cc(Nc2ncc(Cl)c(NC[C@@H]3CCCN3CCCS(C)(=O)=O)n2)cn1 reading="< 0.1 µM"
compound=Cc1cnc(Nc2cnn(C)c2)nc1NC[C@H]1CCCN1C(=O)CC#N reading="< 0.1 µM"
compound=Cc1cnc(Nc2cnn(CC(F)F)c2)nc1NC[C@@H]1C[C@H](F)CN1CCS(C)(=O)=O reading="< 0.1 µM"
compound=Cn1cc(Nc2ncc(Cl)c(NC[C@H]3CCN(C(=O)CC#N)C3)n2)cn1 reading="< 0.1 µM"
compound="CN1C(=O)CCC1CNc1nc(Nc2cnn(C)c2)ncc1Cl (stereo not drawn)" reading="0.1 to 1 µM"
compound=CC(=O)N1CC[C@@H](CNc2nc(Nc3cnn(C)c3)ncc2Cl)C1 reading="0.1 to 1 µM"
